Reported IC50 is given for each of the following molecules.
# Assayed System: Polyadenylate-binding protein 1 (Homo sapiens, UniProt P11940)
# Sequence (P11940 whole entry): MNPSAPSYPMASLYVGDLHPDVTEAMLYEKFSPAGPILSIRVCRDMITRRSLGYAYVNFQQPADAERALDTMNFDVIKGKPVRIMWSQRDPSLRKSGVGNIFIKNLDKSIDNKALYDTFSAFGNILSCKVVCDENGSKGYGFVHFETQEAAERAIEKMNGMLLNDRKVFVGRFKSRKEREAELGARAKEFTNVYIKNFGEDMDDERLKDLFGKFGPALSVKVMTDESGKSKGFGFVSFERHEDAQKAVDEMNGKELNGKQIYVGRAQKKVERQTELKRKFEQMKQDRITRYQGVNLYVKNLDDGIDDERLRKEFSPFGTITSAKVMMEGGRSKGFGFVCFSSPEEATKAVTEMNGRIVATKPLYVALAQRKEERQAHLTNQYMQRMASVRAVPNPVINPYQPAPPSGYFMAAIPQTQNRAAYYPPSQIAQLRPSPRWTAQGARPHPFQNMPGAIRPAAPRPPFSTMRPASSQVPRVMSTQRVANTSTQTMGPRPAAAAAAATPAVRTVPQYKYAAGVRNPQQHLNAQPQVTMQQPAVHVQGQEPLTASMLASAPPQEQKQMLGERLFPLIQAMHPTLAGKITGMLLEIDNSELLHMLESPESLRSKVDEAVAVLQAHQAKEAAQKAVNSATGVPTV
# Test Method Notes: MLLE binding blockers, Cy5 peptide tracer – biochemical, fluorescence polarization, Cy5-PAM2 peptide, secondary, miRNA deadenylation inhibitor project, dose response (AID 602260)
# Format: functional
# Experimental Setup: read-out: IC50_Mean
The source made the active and inactive calls. The rule behind the calls is not given here.

INSERT INTO results (molecule, measured_metric, reported_measurement) VALUES
  ('O=C(NC(=S)NC1CCSC1=O)c1ccc([N+](=O)[O-])cc1 (stereo not given)', 'IC50', '> 66 µM (inactive)'),
  ('CCC(C)NC(=O)[C@H]1N2C(=O)c3c(ccc(OC)c3OC)C2SC1(C)C (stereo not given in full)', 'IC50', '> 66 µM (inactive)'),
  ('NC(=O)SCC(=O)Nc1ccc(Cl)c(Cl)c1', 'IC50', '> 66 µM (inactive)'),
  ('CCN(CC(=O)Nc1ccc(OC)cc1)C(=O)CSCc1c(C)noc1C', 'IC50', '> 66 µM (inactive)'),
  ('COc1cc(C(=S)N2CCCCC2)ccc1O', 'IC50', '> 66 µM (inactive)'),
  ('CC(=O)c1cccc(S(=O)(=O)NC2CCSc3ccccc32)c1 (stereo not given)', 'IC50', '> 66 µM (inactive)'),
  ('Oc1nc(S)nc2c1CN(Cc1ccc(F)cc1)CC2', 'IC50', '> 66 µM (inactive)'),
  ('O=c1[nH]nc(Sc2ccccc2)c(=S)[nH]1', 'IC50', '> 66 µM (inactive)'),
  ('COc1ccc(NC(=O)CSc2nnc(CCC(=O)O)c(=O)n2N)cc1', 'IC50', '> 66 µM (inactive)');

Turning to the following molecule.
// returns reported IC50 for input Cc1cccc(NC(=O)NC(=S)NC(=O)c2ccccc2)c1
> 66 µM (inactive)
